- Test system: A. baumannii strain 5075 (AB5075)
- test.method.notes: Clarithromycin potentiation against AB5075 (CLR MIC in presence of adjuvant)
- Type: cell-based, Acinetobacter baumannii
- condition.label: adjuvant at 7.5 μM, AB5075
Flag rule - Fold Reduction of CLR MIC less than 30 fold flags true (1); the remaining entries get false (0).

Example cases with answers are listed next.
>  <compound>
Nc1nc(-c2cccc(NC(=O)Nc3cccc(-c4c[nH]c(N)n4)c3F)c2F)c[nH]1

>  <tested.on>
A. baumannii strain 5075 (AB5075)

>  <group>
true (1)

$$$$
>  <compound>
Nc1nc(-c2ccc(NC(=O)Nc3cccc(-c4c[nH]c(N)n4)c3F)cc2F)c[nH]1

>  <tested.on>
A. baumannii strain 5075 (AB5075)

>  <group>
false (0)

$$$$
>  <compound>
Nc1nc(-c2cccc(NC(=O)Nc3cccc(-c4c[nH]c(N)n4)c3)c2)c[nH]1

>  <tested.on>
A. baumannii strain 5075 (AB5075)

>  <group>
false (0)

$$$$
>  <compound>
Nc1nc(-c2ccc(NC(=O)Nc3ccc(-c4c[nH]c(N)n4)cc3)cc2)c[nH]1

>  <tested.on>
A. baumannii strain 5075 (AB5075)

>  <group>
true (1)

$$$$
>  <compound>
Nc1nc(-c2ccc(NC(=O)Nc3ccc(-c4c[nH]c(N)n4)c(F)c3)cc2)c[nH]1

>  <tested.on>
A. baumannii strain 5075 (AB5075)

>  <group>
true (1)

$$$$

Proceed to the following item.
Query: Please state whether Fold Reduction of CLR MIC is below 30 fold for `Nc1nc(-c2cc(F)cc(NC(=O)Nc3ccc(-c4c[nH]c(N)n4)c(F)c3)c2)c[nH]1`
Response: false (0)

Entry source: patent US20260138957A1
